Hello, the source for this data is patent US20250163167A1, in case you need it.

# SUBJECT OF TEST: T1, human IL-10 receptor (hIL-10R alpha and beta chains) on HEK-Blue IL-10 reporter cells (human, UniProt Q13651 22-578; Q08334 20-325)
# T1 sequence 1: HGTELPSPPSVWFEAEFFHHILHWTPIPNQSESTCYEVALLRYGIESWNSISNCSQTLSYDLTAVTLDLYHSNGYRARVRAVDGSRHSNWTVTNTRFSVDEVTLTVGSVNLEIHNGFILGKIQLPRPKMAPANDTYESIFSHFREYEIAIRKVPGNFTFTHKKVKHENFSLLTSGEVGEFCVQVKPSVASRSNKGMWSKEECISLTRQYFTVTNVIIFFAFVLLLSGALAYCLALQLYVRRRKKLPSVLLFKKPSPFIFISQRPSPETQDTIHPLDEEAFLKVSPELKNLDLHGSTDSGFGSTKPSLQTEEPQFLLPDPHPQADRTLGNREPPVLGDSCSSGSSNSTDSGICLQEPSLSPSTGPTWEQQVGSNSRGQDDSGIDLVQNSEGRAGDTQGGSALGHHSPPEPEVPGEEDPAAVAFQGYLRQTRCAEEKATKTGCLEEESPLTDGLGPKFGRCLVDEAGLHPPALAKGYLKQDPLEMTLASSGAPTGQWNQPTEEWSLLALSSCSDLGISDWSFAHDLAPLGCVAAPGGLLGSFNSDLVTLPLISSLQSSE
# T1 sequence 2: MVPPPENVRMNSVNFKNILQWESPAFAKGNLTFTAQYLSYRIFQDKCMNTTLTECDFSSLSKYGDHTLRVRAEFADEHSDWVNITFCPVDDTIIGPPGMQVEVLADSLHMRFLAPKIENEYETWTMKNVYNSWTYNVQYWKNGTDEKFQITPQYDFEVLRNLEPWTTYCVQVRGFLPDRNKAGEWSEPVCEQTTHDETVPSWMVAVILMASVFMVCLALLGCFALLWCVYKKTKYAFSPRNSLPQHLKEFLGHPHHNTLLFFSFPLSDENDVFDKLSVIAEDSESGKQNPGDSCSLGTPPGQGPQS
# PROTOCOL DESCRIPTION: cell-based or functional assay
MEASUREMENT TYPE: Abs 630 (100 nM) (Abs 630)
API: value field is a number in Abs 630; no unit string.

The cases that follow already have their Abs 630 (100 nM) on record.
# BINDER, MEASUREMENT TYPE, EXPERIMENTAL VALUE
records = [
    ("IL10R binding molecule of SEQ ID NO: 277 (bispecific antibody) QVQLQESGGGSVQAGGSLRLSCAVSGYAYSTYCMGWFRQAPGKEREGVAAIDSGGSTSYADSVKGRFTISKDNAKNTLYLRMNSLKPEDTAMYYCAAVPPPPDGGSCLFLGPEIKVSKADFRYWGQGTQVTVSSGGGSQVQLQESGGGSVQAGGSLRLSCAASGYTYSSGCMGWFRQAPGKEREAVAAINSDGSTSYADSVKGRFTISKDNAKNTLYLQMNSLKPEDTAMYYCAAEPYCSGGYPRWSVAEFGYWGQGTQVTVSSASHHHHHH", "Abs 630 (100 nM)", 1),
    ("IL10R binding molecule of SEQ ID NO: 334 (bispecific antibody) QVQLQESGGGSVEAGGSLRLSCAASGYTHSSYCMGWFRQAPGKEREGVAAIDVDGSTTYADSVKGRFTISKDNAKNTLYLQMNSLKPEDTGMYYCAAEFADCSSNYFLPPGAVRYWGQGTQVTVSSGGGSQVQLQESGGGSVQAGGSLRLSCAASRFTYSSYCMGWFRQAPGKEREGVASIDSDGSTSYTDSVKGRFTISKDNAKNTLYLQMNSLKPEDTAMYYCALDLMSTVVPGFCGFLLSAGMDYWGKGTQVTVSSASHHHHHH", "Abs 630 (100 nM)", 1.14),
    ("IL10R binding molecule of SEQ ID NO: 265 (bispecific antibody) QVQLQESGGGSVQAGGSLRLSCAASRFTYSSYCMGWFRQAPGKEREGVASIDSDGSTSYTDSVKGRFTISKDNAKNTLYLQMNSLKPEDTAMYYCALDLMSTVVPGFCGFLLSAGMDYWGKGTQVTVSSGGGSQVQLQESGGGSVQAGGSLRLSCAASRYTYNSYCMGWFRQAPGKEREGVATIDSDGMTRYADSVKGRFTISKDNAKNTLYLQMNSLKPEDTAMYYCAADADCTIAAMTTNPLGQGTQVTVSSASHHHHHH", "Abs 630 (100 nM)", 0.46),
    ("IL10R binding molecule of SEQ ID NO: 341 (bispecific antibody) QVQLQESGGGSVQAGGSLRLSCAASGYSYSSYCMGWFRQAPGKEREGVATIDSDGMTRYADSVKGRFTISKDNAKNTLYLQMNSLKPEDTAMYYCAAPLYDCDSGAVGRNPPYWGQGTQVTVSSGGGSQVQLQESGGGSVQAGGSLRLSCAASRFTYSSYCMGWFRQAPGKEREGVASIDSDGSTSYTDSVKGRFTISKDNAKNTLYLQMNSLKPEDTAMYYCALDLMSTVVPGFCGFLLSAGMDYWGKGTQVTVSSASHHHHHH", "Abs 630 (100 nM)", 0.48),
]

Attention now shifts to the item below.
Exam item: Name the recorded Abs 630 (100 nM) for IL10R binding molecule of SEQ ID NO: 353 (bispecific antibody) QVQLQESGGGSVQTGGSLRLSCAASGYTYLRGCMGWFRQAPGKEREGVAVMDVVGDRRSYIDSVKGRFTISRDNAANSVYLQMDNLKPEDTAMYYCTAGPNCVGWRSGLDYWGQGTQVTVSSGGGSQVQLQESGGGSVQAGGSLRLSCAASGYSNCSYDMTWYRQAPGKEREFVSAIHSDGSTRYADSVKGRFFISQDNAKNTVYLQMNSLKPEDTAMYYCKTDPLHCRAHGGSWYSVRANYWGQGTQVTVSSASHHHHHH .
Marked response: 0.61
